target: LXRβ (Homo sapiens, UniProt P55055); construct: Co-transfection expression plasmids, comprising full-length LXRα (pCMX-h LXRα[…] or LXRβ (pCMX-hLXRβ)); assay: Co-transfection assay (LXRE luciferase reporter), LXRβ; settings: CV-1 cells transfected with pCMX-hLXRβ and LXREx1-Tk-Luciferase; 20 hours incubation
Sequence (P55055 whole entry): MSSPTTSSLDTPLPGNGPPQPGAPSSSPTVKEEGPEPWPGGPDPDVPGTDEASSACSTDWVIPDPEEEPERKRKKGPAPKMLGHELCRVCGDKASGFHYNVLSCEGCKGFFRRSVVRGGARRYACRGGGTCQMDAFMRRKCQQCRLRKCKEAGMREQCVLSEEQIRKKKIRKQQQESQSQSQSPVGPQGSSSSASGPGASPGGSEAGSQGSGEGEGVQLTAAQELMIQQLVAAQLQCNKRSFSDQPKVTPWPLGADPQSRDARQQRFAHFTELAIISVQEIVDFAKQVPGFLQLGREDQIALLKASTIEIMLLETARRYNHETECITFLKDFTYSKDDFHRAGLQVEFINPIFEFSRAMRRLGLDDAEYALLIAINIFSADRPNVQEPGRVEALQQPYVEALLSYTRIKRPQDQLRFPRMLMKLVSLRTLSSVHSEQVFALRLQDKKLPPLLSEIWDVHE
Sequence (P19793 whole entry partner): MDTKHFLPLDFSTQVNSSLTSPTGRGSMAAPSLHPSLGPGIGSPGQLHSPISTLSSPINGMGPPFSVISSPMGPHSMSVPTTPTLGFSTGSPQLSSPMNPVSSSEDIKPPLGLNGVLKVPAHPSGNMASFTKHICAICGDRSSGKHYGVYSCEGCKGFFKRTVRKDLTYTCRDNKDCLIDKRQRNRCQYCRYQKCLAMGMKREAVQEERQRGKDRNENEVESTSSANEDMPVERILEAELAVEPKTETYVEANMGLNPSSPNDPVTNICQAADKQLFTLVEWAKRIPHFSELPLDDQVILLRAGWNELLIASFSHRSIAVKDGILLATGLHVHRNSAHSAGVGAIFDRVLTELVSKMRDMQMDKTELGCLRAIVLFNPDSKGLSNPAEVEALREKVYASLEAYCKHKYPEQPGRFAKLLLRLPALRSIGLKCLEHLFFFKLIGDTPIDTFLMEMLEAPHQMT
The reader will find reported pEC50 values listed item by item below.
Scale explanation: pEC50 corresponds to minus log10 of a concentration expressed in moles per litre.

Guide cases for pEC50, answers given:
Cc1nc(Cl)cn1-c1ccc(-c2cc(F)c(CO)c(S(C)(=O)=O)c2)cc1-n1nncc1-c1ccc(OC(F)(F)F)cc1 [Example 147] :: 6.38
COc1ccc(-c2cnnn2-c2cc(-c3cccc(S(C)(=O)=O)c3)ccc2-n2cc(C(F)(F)F)nc2C)cc1C(F)(F)F [Example 74] :: 6.31
Cc1nc(-c2ccc(OC(F)(F)F)cc2)c(-c2cc(-c3ccc(CO)c(S(C)(=O)=O)c3)ccc2-n2cc(C(F)(F)F)nc2C)o1 [Example 607] :: 7.34
Cc1nc(C(F)F)cn1-c1ccc(-c2cc(F)c(CO)c(S(C)(=O)=O)c2)cc1-n1nncc1C(C)c1ccc(Cl)cc1 (centres unmarked) [Example 134] :: 6.78
Cc1cn(-c2ccc(-c3cccc(S(C)(=O)=O)c3)cc2-n2nncc2-c2ccc(OC(F)(F)F)cc2)c(C)n1 [Example 83] :: 5.94
CNS(=O)(=O)c1cccc(-c2cc(F)c(-n3cc(C(F)(F)F)nc3C)c(-n3nncc3-c3ccc(Cl)cc3)c2)c1 [Example 209] :: 6.67
Cc1nc(C(F)(F)F)cn1-c1ccc(-c2cccc(S(C)(=O)=O)c2)cc1-n1nncc1C1(c2ccc(Cl)cc2)CC1 [Example 112] :: 6.01
Cc1nc(-c2cc(-c3cccc(S(=O)(=O)N(C)C)c3)ccc2-n2cc(C(F)(F)F)nc2C)c(-c2ccc(OC(F)F)cc2)o1 [Example 541] :: 7.60
Cc1nc(C2CC2)cn1-c1ccc(-c2cccc(S(C)(=O)=O)c2)cc1-n1nncc1-c1ccc(OC(F)(F)F)cc1 [Example 229] :: 6.02
Cc1nc(C(F)(F)F)cn1-c1ccc(-c2cc(F)c(CO)c(S(C)(=O)=O)c2)cc1-c1nc(CC(C)O)oc1-c1ccc(OC(F)(F)F)cc1 (centres unmarked) [Example 534] :: 6.71

Query :: Fill blank: measured pEC50 of the molecule Cc1nc(C(F)(F)C(C)C)cn1-c1ccc(-c2cc(F)c(CO)c(S(C)(=O)=O)c2)cc1-n1nncc1-c1ccc(OC(F)(F)F)cc1 [Example 221] is ____.
Result :: 6.95

Query :: Same read-out for Cc1nc(-c2cc(-c3cc(F)c(CO)c(S(C)(=O)=O)c3)ccc2-n2cc(C(F)(F)F)nc2C)c(-c2cccn(C(C)C)c2=O)o1 [Example 378] ?
Result :: 7.31

Query :: Same read-out for Cc1nc(-c2cc(-c3cccc(S(C)(=O)=O)c3)ccc2-n2cc(C(F)(F)F)nc2C)c(-c2ccc(Cl)c(F)c2)o1 [Example 498] ?
Result :: 7.06

Query :: Same read-out for Cc1nc(C(F)(F)F)cn1-c1ccc(-c2cccc(S(C)(=O)=O)c2)cc1-n1nncc1-c1ccc(OC(F)F)cc1 [Example 65] ?
Result :: 6.53

Query :: Same read-out for Cc1nc(C(F)(F)F)cn1-c1ccc(-c2cccc(S(C)(=O)=O)c2)cc1-n1nncc1-c1ccc(Cl)c(F)c1 [Example 69] ?
Result :: 6.47

Query :: Same read-out for Cc1nc(-c2cc(-c3cc(F)c(CO)c(S(C)(=O)=O)c3)ccc2-n2cc(C(F)(F)F)nc2C)c(-c2ccc(OC(F)F)nc2)o1 [Example 385] ?
Result :: 7.82

Query :: Same read-out for Cc1nc(C(F)(F)F)cn1-c1c(F)cc(-c2cccc(S(C)(=O)=O)c2)cc1-n1nncc1-c1ccc(OC(F)(F)F)cc1 [Example 201] ?
Result :: 6.90

Query :: Same read-out for Cc1nc(C(F)(F)F)cn1-c1ccc(-c2cccc(C(C)(C)C(N)=O)c2)cc1-n1nncc1C(=O)c1ccc(Cl)cc1 [Example 139] ?
Result :: 5.83
